Experiment: Functional metabolic assay to measure dose dependent changes in cell viability from drug treatment in Vero E6/TMPRSS2 cells (cotreated with P-gp inhibitor, Elacridar). […] Cytotoxicity is reported via measuring absorbance and analysis of MTT/MTS assays in uninfected cells. The assay has been performed by Icahn School of Medicine at Mount Sinai.
Type: toxicity, cell-based, VeroE6/TMPRSS2
Details: chlorocebus sabaeus, Vero E6/TMPRSS2 cells, with Elacridar (P-gp inhibitor, concentration not stated); p-gp concentration 2 uM
Readout: CC50

{"Mol Smiles": "CC(=O)Nc1cc(Cl)cc(C(=O)Nc2cccc(CN)c2)c1", "Result": "> 50 µM"}

Read the entry "O=C(NC[C@H]1CCCO1)[C@H](Nc1ccc2c(c1)CNC2)c1cc(Cl)cc(C2CC2)c1" and write its reported CC50.
> 50 µM

Read the entry "NCc1ccc(F)c(NC(=O)c2cc(Cl)cc(NC(=O)OCc3ccccc3)c2)c1" and write its reported CC50.
> 50 µM

Read the entry "N#Cc1cc(Cl)cc([C@H](C#N)Nc2ccc3c(c2)CNC3)c1" and write its reported CC50.
> 50 µM

Read the entry "C=CC[C@H](Nc1cccc(-c2nn[nH]n2)c1)c1cc(Cl)cc2[nH]ncc12" and write its reported CC50.
> 5 µM

###

Assay: Functional metabolic assay to measure dose dependent changes in cell viability from drug treatment in Vero E6/TMPRSS2 cells. Cells are treated with antiviral candidates that have been serially diluted. Cytotoxicity is reported via measuring absorbance and analysis of MTT/MTS assays in uninfected cells. The assay has been performed by Icahn School of Medicine at Mount Sinai.
Format: toxicity, cell-based, VeroE6/TMPRSS2
Conditions: chlorocebus sabaeus, veroe6/tmprss2
Overview of reported CC10 across a group of compounds:
All answers are understood in µM, so give the number only.

Some solved cases for reference:
{"Mol Smiles": "Cc1cc(CN)cc(NC(=O)c2cc(Cl)cc(NC(=O)OCc3ccccc3)c2)c1", "Readout": "CC10", "Recorded Number": 8.014}
{"Mol Smiles": "NCCc1cccc(NC(=O)[C@H]2[C@H]3CCCCC[C@H]3[C@H]2NC(=O)OCc2ccccc2)c1", "Readout": "CC10", "Recorded Number": 2.002}
{"Mol Smiles": "NCCCc1cccc(NC(=O)c2cc(Cl)cc(NC(=O)OCc3ccccc3)c2)n1", "Readout": "CC10", "Recorded Number": 6.788}
{"Mol Smiles": "O=C(Nc1cc(Cl)cc(C(=O)Nc2ccc3c(c2)CNC3)c1)OCc1ccccc1", "Readout": "CC10", "Recorded Number": 19.011}

Read the entry "NCc1cccc(C(=O)Nc2cc(Cl)cc(NC(=O)OCc3ccccc3)c2)c1" and write its reported CC10.
8.366

###

Assay: Functional CPE-based assay to measure dose dependent changes in cell viability from drug treatment in Vero E6 miRFP670 cells (cotreated with P-gp inhibitor, CP100356). Cells are treated with antiviral candidates that have been serially diluted. Cytotoxicity is reported via analysis of MTS assays in uninfected cells. The assay has been performed by KU Leuven.
Format: toxicity, Vero C1008
Settings: chlorocebus sabaeus, Vero E6 miRFP670 cells, with CP100356 (P-gp inhibitor, concentration not stated); p-gp concentration 500 nM
Overview of reported CC50 across a group of compounds:
All answers are understood in µM, so give the number only.

{"Mol Smiles": "COc1cccc(-c2nc3c(C(=O)Nc4ccc5c(c4)CNC5)cc(F)cc3[nH]2)c1", "Readout": "CC50", "Output Unit": "µM", "Recorded Number": 2.86}
{"Mol Smiles": "O=C(Nc1cc2c(cc1Br)CNC2)c1cc(F)cc2[nH]ncc12", "Readout": "CC50", "Output Unit": "µM", "Recorded Number": 46.1}
{"Mol Smiles": "O=C(Nc1ccc2c(c1)CNC2)c1cc(Cl)cc2[nH]c(-c3ccccc3)nc12", "Readout": "CC50", "Output Unit": "µM", "Recorded Number": 2.09}
{"Mol Smiles": "Cn1cc2cc(Cl)cc(C(=O)Nc3ccc4c(c3)CNC4)c2n1", "Readout": "CC50", "Output Unit": "µM", "Recorded Number": 2.75}
{"Mol Smiles": "O=C(Nc1ccc2c(c1)CNC2)c1cccc2[nH]c(C(F)(F)F)cc12", "Readout": "CC50", "Output Unit": "µM", "Recorded Number": 47.3}
{"Mol Smiles": "O=C(Nc1cc(Cl)cc(-c2ccc3cc(C(=O)O)[nH]c3c2)c1)OCc1ccccc1", "Readout": "CC50", "Output Unit": "µM", "Recorded Number": 38.1}

Read the entry "Cc1ncc(-c2cc(F)cc(C(=O)Nc3ccc4c(c3)CNC4)c2)s1" and write its reported CC50.
23.1

Read the entry "O=C(Nc1ccc2c(c1)CNC2)c1ccc2c(C3=CCNCC3)csc2c1" and write its reported CC50.
47.1

###

Overview of reported CC50 across a group of compounds:
Assay: Functional assay to measure dose dependent changes in cell viability from drug treatment in Vero E6 miRFP670 cells (cotreated with P-gp inhibitor, CP100356) that are infected with Dengue virus type 2 New Guinea C. […] Cytotoxicity is reported via via analysis of DAPI count using high-content imager. The assay has been performed by KU Leuven.
Type: toxicity, cell-based, Vero C1008
Conditions: chlorocebus sabaeus, with CP100356 (P-gp inhibitor, concentration not stated); p-gp concentration 500 nM

{"Mol Smiles": "CCCCCC(=O)N[C@H](C(=O)Nc1ccc2[nH]ncc2c1)c1ccc(OCc2ccccc2)cc1", "CC50": "> 10 µM"}
{"Mol Smiles": "O=C(NCC(F)F)[C@H](Nc1cnc2c(c1)CNC2)c1cc(Cl)cc(C2CC2)c1", "CC50": "> 50 µM"}
{"Mol Smiles": "O=C(Nc1ccc2c(c1)CNC2)c1cccc2nc(O)ccc12", "CC50": "> 50 µM"}
{"Mol Smiles": "O=C(Nc1ccc2c(c1)CNC2)c1cccc2[nH]c(C(F)(F)F)cc12", "CC50": "> 50 µM"}

Turning now to a further compound:
Read the entry "O=C(Nc1cnc2c(c1)CNC2)c1cc(F)cc2[nH]ncc12" and write its reported CC50.
> 50 µM

###

Assay: Functional assay to measure dose dependent changes in cell viability from drug treatment in Vero E6 miRFP670 cells (cotreated with P-gp inhibitor, CP100356) that are infected with Dengue virus type 2 New Guinea C. […] Cytotoxicity is reported via via analysis of DAPI count using high-content imager. The assay has been performed by KU Leuven.
Type: toxicity, cell-based, Vero C1008
Details: chlorocebus sabaeus, vero c1008; p-gp concentration 100 nM
Readout: CC50 (µM)
All answers are understood in µM, so give the number only.

Read the entry "O=C(Nc1ccc2c(c1)CNC2)c1cc(Cl)cc2[nH]ncc12" and write its reported CC50.
5.47

###

Assay: Functional CPE-based assay to measure dose dependent changes in cell viability from drug treatment in Vero E6 miRFP670 cells (cotreated with P-gp inhibitor, CP100356). Cells are treated with antiviral candidates that have been serially diluted. Cytotoxicity is reported via analysis of MTS assays in uninfected cells. The assay has been performed by KU Leuven.
Assay type: toxicity, Vero C1008
Conditions: chlorocebus sabaeus, Vero E6 miRFP670 cells, with CP100356 (P-gp inhibitor, concentration not stated); p-gp concentration 500 nM
Readout: CC50 (µM)
All answers are understood in µM, so give the number only.

{"Mol Smiles": "COc1cc(N[C@@H](C(=O)N2CCc3ccc(OC(F)(F)F)cc32)c2ccc(Cl)cc2)cc(OCCCC(=O)O)c1", "CC50, µM": 11.1}

Read the entry "CO[C@H]1C[C@H](n2ncc3c(C(=O)Nc4ccc5c(c4)CNC5)cc(Cl)cc32)C1" and write its reported CC50.
14

Read the entry "Cc1ncc(-c2cc(F)cc(C(=O)Nc3ccc4c(c3)CNC4)c2)o1" and write its reported CC50.
11.9

Read the entry "O=C(Nc1ccc2c(c1)CNC2)c1cc(Cl)cc2ccccc12" and write its reported CC50.
10.1

Read the entry "O=C(O)c1cc2cc(-c3cc(Cl)cc(C4CC4)c3)ccc2[nH]1" and write its reported CC50.
35.5

###

Assay: Functional metabolic assay to measure dose dependent changes in cell viability from drug treatment in Vero E6/TMPRSS2 cells (cotreated with P-gp inhibitor, Elacridar). […] Cytotoxicity is reported via measuring absorbance and analysis of MTT/MTS assays in uninfected cells. The assay has been performed by Icahn School of Medicine at Mount Sinai.
Format: toxicity, cell-based, VeroE6/TMPRSS2
Settings: chlorocebus sabaeus, veroe6/tmprss2; p-gp concentration 2 uM
# note: boundary value 20 µM maps to -1; CC50 below it maps to 1

{"Mol Smiles": "CC(C)CNC(=O)c1cc(Cl)c(F)cc1NS(=O)(=O)c1ccc(Oc2ccccc2Cl)cc1", "Class Assignment": -1}
{"Mol Smiles": "Cc1ccc(NC(=O)c2cc(Cl)cc(NC(=O)OCc3ccccc3)c2)cc1CN", "Class Assignment": 1}
{"Mol Smiles": "CC(C)CNC(=O)c1cc(Cl)ccc1NS(=O)(=O)c1ccc(Oc2ccccc2Cl)cc1", "Class Assignment": -1}

Lab note: CC50 threshold 20 µM. Does this molecule come in strictly under it? "O=C(Nc1cc(Cl)cc(C(=O)Nc2cccc(C3CCNCC3)c2)c1)OCc1ccccc1"
1

Lab note: CC50 threshold 20 µM. Does this molecule come in strictly under it? "NCc1cccc(C(=O)Nc2cc(Cl)cc(NC(=O)OCc3ccccc3)c2)c1"
1

Lab note: CC50 threshold 20 µM. Does this molecule come in strictly under it? "CCOc1cccc(-c2ccc(S(=O)(=O)Nc3ccc(Cl)cc3C(=O)O)cc2)c1"
-1

Lab note: CC50 threshold 20 µM. Does this molecule come in strictly under it? "c1ccc2sc(C3CCN(Cc4c[nH]c5ccccc45)CC3)nc2c1"
-1

Measured values drawn from ChEMBL document CHEMBL5661955 for this set.
